tested on: SK-OV-3 ovarian; assay: NCI tumour cell line growth inhibition, 48 h
Assignment: determine reported TGI for the given compounds.

Worked cases, answers included:
> print(dat)
                                   compound  meas.value
1  O=C1NC(=S)S/C1=C\c1cn(-c2ccccc2)nc1-c1ccccc1     42.2 µM
2  C[N+](C)(CCCCCC[N+](C)(C)CCCN1C(=O)c2cccc3cccc(c23)C1=O)CCCN1C(=O)c2cccc3cccc(c23)C1=O    > 100 µM
3  CN=C(N)c1ccc(N=C(N)c2ccc(-c3ccc(C(N)=Nc4ccc(C(N)=NC)cc4)cc3)cc2)cc1    > 100 µM
4  COc1ccc(-n2c(CCC(=O)O)nc3c2C(=O)c2ccccc2C3=O)cc1    > 100 µM
5  Cc1ccc(/C=C2\Sc3scc(-c4ccccc4)[n+]3C2=O)cc1   > 67.6 µM

State recorded TGI for all listed compounds.
1. O=C1C(Cl)N(c2c(Cl)cccc2Cl)C1c1c[nH]c2ccccc12 (stereo not given)
2. C=C1CC(C)(COc2ccc3c(C)c(Cl)c(=O)oc3c2)OC1=O (stereo not given)
3. O=C(CS(=O)(=O)c1nc2ccccc2nc1-c1ccccc1)Nc1ccc(F)cc1
4. N#CCn1c(=O)c(Oc2ccc(F)cc2F)cc2cnc(NC3CCOCC3)nc21
5. CN1CCN(CC(=O)N(C)c2ccc(N=C(c3ccccc3)c3c(O)[nH]c4ccc(C#N)cc34)cc2)CC1
6. Oc1ccc(Br)cc1C=Nc1cccc(C(F)(F)F)c1

Result block:
1. > 100 µM
2. 17.6 µM
3. > 100 µM
4. > 25 µM
5. 21.1 µM
6. > 100 µM

State recorded TGI for all listed compounds.
1. CCOC(=O)c1c[nH]c(C(=O)OCC)c1-c1cccn1-c1ccccc1
2. C=C1C(=O)O[C@H]2[C@H]1CC/C(COC(=O)c1cc(OC)c(OC)c(OC)c1)=C\CC[C@@]1(C)O[C@@H]21

Result block:
90.6 µM
16.8 µM

State recorded TGI for all listed compounds.
1. O[C@]12C=C(c3nccc4c3[nH]c3ccccc34)[C@@H]3CCN(CCCC/C=C\CC1)C[C@@]31CC3/C=C\CCCCN3[C@H]12 (stereo not given in full)
2. NC(N)=N/N=C/c1c(-c2ccsc2)nc2n1CCS2
3. COc1cc2cc(Oc3ccc(NC(=O)Nc4cc(C(F)(F)F)cc(C(F)(F)F)c4)cc3)c(C)nc2cc1OCCN1CCOCC1
4. CCCCOCCOCCOC1=CC(=O)c2c(O)ccc(O)c2C1=O
5. NC1NC=NC2C1N=CN2C1OC(CO)C2[O][Sn][O]C21 (stereo not given)

Result block:
1: 0.743 µM; 2: > 100 µM; 3: 8.5 µM; 4: > 10 µM; 5: > 100 µM

State recorded TGI for all listed compounds.
1. CCCNC(=O)Nc1c([N+](=O)[O-])cc(C(F)(F)F)cc1[N+](=O)[O-]
2. O=C1c2ccccc2C(=O)c2cc3c(cc21)CS(=O)C3

Result block:
1. > 100 µM
2. > 100 µM
